B1: VH:VL chains; a variant is named by its letters at X, in order (parent)
chain 1: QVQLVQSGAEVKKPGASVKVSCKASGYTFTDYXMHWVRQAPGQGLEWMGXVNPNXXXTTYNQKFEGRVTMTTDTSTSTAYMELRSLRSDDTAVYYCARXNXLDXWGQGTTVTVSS
chain 2: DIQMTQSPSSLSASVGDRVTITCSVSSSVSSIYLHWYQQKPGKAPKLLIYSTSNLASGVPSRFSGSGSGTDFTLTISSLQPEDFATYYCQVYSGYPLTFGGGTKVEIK

variants of: B1; test: yeast display scFab, FACS + sequencing; conditions: with MET
This is one part of the list. How many sequences the whole screen found active is unknown.
property-measured: antigen binding call

mutation-list | antigen binding call
DAGGGSSS | no binding
FTRTNFLS | no binding
YKGRGFAY | binds
DEGAGDGF | no binding

What antigen binding call value was documented for this variant, `VEGGTAGS` ?
no binding

Do the same for `YRAGAAVA` please
binds

And then `YRAAGSGA` , what is it?
binds
